Assay: logP determination via retention times, calibrated with unbranched alkan-2-ones
Format: physicochemical
Conditions: method **: HPLC, reversed-phase C 18, 43° C., mobile phase 0.1% aqueous phosphoric acid and acetonitrile, linear gradient from 10% to 95% acetonitrile
assay metric: logP

COc1ccc(CN(c2nc(Nc3cccc(SC)c3)ncc2Cl)C2CC2)cc1 ... 4.78**
CSc1cccc(Nc2ncc(Cl)c(NC3CC3(C)C)n2)c1 (centres unmarked) ... 3.07**

For reference, reported logP for CC1CC1Nc1nc(Nc2ccccc2)ncc1Cl (centres unmarked) stands at 2**

Measured logP of Clc1cnc(Nc2cccc(CN3CCCC3)c2)nc1NC1CC1 : 0.92**

Form field logP, entry C=CCOc1cccc(Nc2ncc(C(F)(F)F)c(NC3CC3)n2)c1 : 3.54**

The recorded logP for COCCc1cccc(Nc2ncc(C(F)(F)F)c(NC3CC3)n2)c1 is 2.88**

So, CC1(C)CC1Nc1nc(Nc2ccccc2)ncc1Cl (centres unmarked) ? Its logP was 2.37**

# compound FS(F)(F)(F)(F)c1cccc(Nc2ncc(Cl)c(NC3CC3)n2)c1 ; its logP = 3.7**
